- target.under.test: PRMT5/MEP50 (Homo sapiens, UniProt O14744)
- Construct: Flag-PRMT5; made in house; host or cells: Spodoptera frugiperda (SF9), baculovirus
- Sequence (O14744 with tags, fused parts or gaps): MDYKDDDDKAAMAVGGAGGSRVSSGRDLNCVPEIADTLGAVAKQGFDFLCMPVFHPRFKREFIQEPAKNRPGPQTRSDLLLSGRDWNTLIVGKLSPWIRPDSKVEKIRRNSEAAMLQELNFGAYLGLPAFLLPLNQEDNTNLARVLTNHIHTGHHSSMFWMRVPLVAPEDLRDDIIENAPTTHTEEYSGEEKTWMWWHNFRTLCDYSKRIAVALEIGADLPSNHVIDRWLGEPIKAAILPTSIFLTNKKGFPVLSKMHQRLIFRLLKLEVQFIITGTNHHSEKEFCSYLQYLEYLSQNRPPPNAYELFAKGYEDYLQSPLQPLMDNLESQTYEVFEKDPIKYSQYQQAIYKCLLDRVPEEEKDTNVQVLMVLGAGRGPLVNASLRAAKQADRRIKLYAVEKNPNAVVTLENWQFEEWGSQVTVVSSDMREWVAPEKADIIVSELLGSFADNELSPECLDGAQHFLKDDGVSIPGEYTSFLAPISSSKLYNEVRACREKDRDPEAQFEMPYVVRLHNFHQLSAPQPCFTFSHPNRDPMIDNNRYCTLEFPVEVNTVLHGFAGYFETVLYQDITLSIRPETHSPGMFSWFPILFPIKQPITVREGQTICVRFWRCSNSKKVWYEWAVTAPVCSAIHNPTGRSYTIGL
- Sequence (Q9BQA1 with tags, fused parts or gaps partner limits assumed): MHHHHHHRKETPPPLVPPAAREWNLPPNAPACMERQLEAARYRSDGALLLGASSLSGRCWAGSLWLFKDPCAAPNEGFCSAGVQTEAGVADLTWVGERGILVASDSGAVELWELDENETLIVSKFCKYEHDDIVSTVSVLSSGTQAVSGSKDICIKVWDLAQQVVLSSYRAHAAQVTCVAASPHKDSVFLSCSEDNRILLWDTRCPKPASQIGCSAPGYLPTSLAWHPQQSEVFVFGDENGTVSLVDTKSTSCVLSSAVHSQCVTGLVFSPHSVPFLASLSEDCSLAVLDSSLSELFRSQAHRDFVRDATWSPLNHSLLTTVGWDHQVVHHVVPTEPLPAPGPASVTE
- assay.notes: PRMT5 Biochemical Assay (PRMT5/MEP50 enzyme assay on histone H4 peptide substrate, 3H-SAM Flashplate)
- recorded.conditions: PRMT5 biochemical assay; read-out: Biochemical IC50
This listing pairs molecules with measured IC50.
parameter.measured: IC50

> print(dat)
                                   molecule  parameter.measured  readout.value
1  Nc1ncnc2c1ncn2[C@@H]1O[C@H](CSC[C@H](N)C(=O)O)[C@@H](O)[C@H]1O                IC50  0.101 to 1 µM
2  Cc1ccc(NC(=O)CC2NC(N3CCN(C)CC3)=NC2=O)cc1 (centres unmarked)                IC50    10 to 50 µM
3  CN(CCN1CCCN(Cc2ccccc2)CC1)C[C@H]1OC(n2cnc3c(N)ncnc32)[C@H](O)[C@@H]1O (some centres unmarked)                IC50  0.101 to 1 µM
4  CN(C)c1cccc2c(S(=O)(=O)NC3CC(=O)N(c4ccccc4F)C3)cccc12 (centres unmarked)                IC50       < 0.1 µM
5  CN(CCNCc1ccccc1)C[C@H]1O[C@@H](n2cnc3c(N)ncnc32)[C@H](O)[C@@H]1O                IC50  0.101 to 1 µM
6  CN(CCNCCOc1ccccc1)C[C@H]1O[C@@H](n2cnc3c(N)ncnc32)[C@H](O)[C@@H]1O                IC50       < 0.1 µM
7  O=C1c2ccccc2C(=O)N1CCCSC[C@H]1C[C@@H](n2ccc3cncnc32)[C@H](O)[C@@H]1O                IC50  0.101 to 1 µM
8  O=C(CC1NC(N2CCN(c3ccccc3)CC2)=NC1=O)Nc1ccccc1 (centres unmarked)                IC50     1 to 10 µM

====

- target.under.test: PRMT5/MEP50 (Homo sapiens, UniProt O14744)
- Construct: Flag-PRMT5; made in house; host or cells: Spodoptera frugiperda (SF9), baculovirus
- assay.notes: PRMT5 Biochemical Assay (PRMT5/MEP50 enzyme assay on histone H4 peptide substrate, 3H-SAM Flashplate)
- recorded.conditions: PRMT5 biochemical assay; read-out: Biochemical IC50
- Source text: S-adenosylmethionine (SAM), S-adenosylhomocysteine (SAH), bicine, KCl, Tween20, dimethylsulfoxide (DMSO), bovine skin gelatin (BSG), and Tris(2-carboxyethyl)phosphine hydrochloride solution (TCEP) were purchased from Sigma-Aldrich at the highest level of purity possible. ^3H-SAM was purchase from American Radiolabeled Chemicals with a specific activity of 80 Ci/mmol. 384-well streptavidin Flashplates were purchased from PerkinElmer. […]
parameter.measured: IC50

> print(dat)
                                   molecule  parameter.measured  readout.value
1  O=C(NC[C@H](O)CN1Cc2ccccc2C1)c1cncc(NC2CCN(CC(F)(F)F)CC2)c1                IC50  0.101 to 1 µM
2  COc1ccccc1C(=O)CC1NC(N2Cc3ccccc3C2)=NC1=O (centres unmarked)                IC50     1 to 10 µM
3  CCN(CCNCCc1ccc(Cl)cc1)C[C@H]1O[C@@H](n2cnc3c(N)ncnc32)[C@H](O)[C@@H]1O                IC50  0.101 to 1 µM
4  CC(=O)N1CCC(Nc2cc(C(=O)N(C)C[C@H](O)CN3CCc4ccccc4C3)ncn2)CC1                IC50       < 0.1 µM
5  O=C(CC1NC(N2CCN(c3ccccc3)CC2)=NC1=O)Nc1ccc2c(c1)OCO2 (centres unmarked)                IC50    10 to 50 µM
6  O=C(NC[C@H](O)CN1Cc2ccccc2C1)c1ccnc(NC2CCNC2)c1 (some centres unmarked)                IC50  0.101 to 1 µM
7  CC(=O)c1ccc(NC(=O)CC2NC(N3CCN(C)CC3)=NC2=O)cc1 (centres unmarked)                IC50    10 to 50 µM
8                    NCc1nccn1Cc1cccc(Br)c1                IC50    10 to 50 µM
